For each record, write down the corresponding IC50.
assaySystem: UniProtKB Q9NWZ3
Sequence (Q9NWZ3 whole entry): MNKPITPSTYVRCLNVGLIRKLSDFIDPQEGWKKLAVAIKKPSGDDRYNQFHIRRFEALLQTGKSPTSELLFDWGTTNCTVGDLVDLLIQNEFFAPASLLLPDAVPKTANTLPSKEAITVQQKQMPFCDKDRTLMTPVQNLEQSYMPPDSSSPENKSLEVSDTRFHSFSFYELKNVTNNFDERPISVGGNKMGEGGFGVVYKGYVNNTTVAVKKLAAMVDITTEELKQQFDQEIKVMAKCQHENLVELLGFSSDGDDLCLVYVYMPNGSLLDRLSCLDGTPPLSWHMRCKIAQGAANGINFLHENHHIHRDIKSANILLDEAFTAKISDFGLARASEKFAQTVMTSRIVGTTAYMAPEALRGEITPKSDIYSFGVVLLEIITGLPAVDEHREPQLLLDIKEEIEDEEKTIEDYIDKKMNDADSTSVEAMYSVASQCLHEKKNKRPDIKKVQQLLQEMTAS
assayInfo: IRAK4 Biochemical Assay (TR-FRET, STK1 KinEASE)
All answers are understood in pM, so give the number only.

**Query** Consider the molecule shown here: C[C@]1(O)CCN(c2nnc(-c3cnc(-c4ccc5cc(C#N)cnn45)cc3NC3COC3)s2)C[C@@H]1F [Example 207] What is its recorded IC50?
**Result** 690

**Query** Consider the molecule shown here: CC(C)Nc1cc(-c2ccc3cc(C#N)cnn23)ncc1-c1nnc(N2CC(C)(O)C2)s1 [Example 286] What is its recorded IC50?
**Result** 630

**Query** Consider the molecule shown here: CC(=O)NC[C@@H]1CCCN1C(=O)c1nnc(-c2cnc(-c3ccc4cc(C#N)cnn34)cc2NC(C)C)s1 [Example 41] What is its recorded IC50?
**Result** 1380

**Query** Consider the molecule shown here: COC(=O)N[C@@H]1CCN(C(=O)c2nnc(-c3cnc(-c4ccc5cc(C#N)cnn45)cc3NC(C)C)s2)C1 [Example 44] What is its recorded IC50?
**Result** 530

**Query** Consider the molecule shown here: CC(=O)N[C@@H]1CCN(c2nnc(-c3cnc(-c4ccc5cc(C#N)cnn45)cc3NC(C)C)s2)C[C@@H]1F [Compound 250] What is its recorded IC50?
**Result** 1170

**Query** Consider the molecule shown here: N#Cc1cnn2c(-c3cc(NC4CCOCC4)c(-c4nnc(C56CCC(N)(CC5)CC6)s4)cn3)ccc2c1 [Example 336] What is its recorded IC50?
**Result** 700

**Query** Consider the molecule shown here: CC(C)Nc1cc(-c2ccc3cc(C#N)cnn23)ncc1-c1nnc(N2C3COCC2C3)s1 [Compound 234] What is its recorded IC50?
**Result** 1280
